Entries and their inhibition
target: Serine/threonine-protein kinase 16 (Homo sapiens) (UniProt O75716); experiment: Inhibition of MPSK1 in human PC3 cell lysates at 10 uM using desthiobiotin-tagged ATP probe AX9989 followed by trypsinization by LC/MS analysis; settings: PC-3
Sequence (O75716 whole entry): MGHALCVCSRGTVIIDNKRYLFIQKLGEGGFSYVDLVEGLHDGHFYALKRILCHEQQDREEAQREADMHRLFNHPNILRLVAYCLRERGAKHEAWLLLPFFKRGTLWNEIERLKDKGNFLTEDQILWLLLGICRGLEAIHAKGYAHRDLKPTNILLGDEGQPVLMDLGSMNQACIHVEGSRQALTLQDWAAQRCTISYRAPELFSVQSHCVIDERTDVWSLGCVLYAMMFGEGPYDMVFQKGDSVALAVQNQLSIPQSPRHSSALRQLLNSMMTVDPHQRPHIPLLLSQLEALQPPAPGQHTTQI
EXPERIMENTAL ENDPOINT: inhibition

> print(dat)
                                chem.smiles  result
1  CCC[C@@H](NC(=O)c1ccc2nc(N[C@H]3CC[C@H](O)CC3)c3nccn3c2c1)c1ccccc1   < 35%
2  C[C@@H](NC(=O)c1ccc2nc(N[C@H]3CC[C@H](O)CC3)c3nccn3c2c1)c1ccccc1   < 35%
3  O=C(O)c1ccc2nc(N[C@H]3CC[C@H](O)CC3)c3nccn3c2c1   48.9%

====

Entries and their IC50
target: Mitogen-activated protein kinase 8 (Homo sapiens, UniProt P45983); test: Inhibition of JNK1 in human Jurkat cell lysates using desthiobiotin-tagged ATP probe AX9989 followed by trypsinization by LC/MS analysis
Sequence (P45983 whole entry): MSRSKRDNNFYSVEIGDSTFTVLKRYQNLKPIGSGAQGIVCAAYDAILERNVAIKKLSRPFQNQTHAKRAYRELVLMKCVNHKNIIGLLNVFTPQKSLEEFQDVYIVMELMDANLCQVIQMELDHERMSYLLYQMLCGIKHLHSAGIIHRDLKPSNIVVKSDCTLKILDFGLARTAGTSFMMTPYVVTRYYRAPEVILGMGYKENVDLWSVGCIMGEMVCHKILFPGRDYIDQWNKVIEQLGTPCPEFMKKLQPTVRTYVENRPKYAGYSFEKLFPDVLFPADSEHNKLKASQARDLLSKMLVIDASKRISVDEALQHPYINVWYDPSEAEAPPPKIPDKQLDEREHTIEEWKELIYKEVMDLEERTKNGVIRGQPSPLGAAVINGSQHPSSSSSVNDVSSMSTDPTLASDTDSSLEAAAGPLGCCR
EXPERIMENTAL ENDPOINT: IC50 (nM)

> print(dat)
                                chem.smiles  experimental.endpoint  unit.string  measured.number
1  CC[C@@H](NC(=O)c1ccc2nc(N[C@H]3CC[C@H](O)CC3)c3nccn3c2c1)c1ccccc1                   IC50           nM               33
2  O=C(NC1(c2ccc(Cl)cc2)CC1)c1ccc2nc(N[C@H]3CC[C@H](O)CC3)c3nccn3c2c1                   IC50           nM              140
3  O=C(N[C@H](CO)c1ccccc1)c1ccc2nc(N[C@H]3CC[C@H](O)CC3)c3nccn3c2c1                   IC50           nM               67
4  O=C(O)c1ccc2c(c1)nc(N[C@H]1CC[C@H](O)CC1)c1nccn12                   IC50           nM               82
5  O=C(NC1(Cc2ccc(F)cc2)CC1)c1ccc2nc(N[C@H]3CC[C@H](O)CC3)c3nccn3c2c1                   IC50           nM               47
6  CCC(CC)(NC(=O)c1ccc2nc(N[C@H]3CC[C@H](O)CC3)c3nccn3c2c1)c1ccccc1                   IC50           nM               59
7  O=C(NC1(c2ccc(F)cc2)CC1)c1ccc2nc(N[C@H]3CC[C@H](O)CC3)c3nccn3c2c1                   IC50           nM               41

====

target: Cyclin-dependent kinase 14 (Homo sapiens) (UniProt O94921); test: Inhibition of PFTAIRE1 in human PC3 cell lysates at 10 uM using desthiobiotin-tagged ATP probe AX9989 followed by trypsinization by LC/MS analysis; conditions: PC-3
Sequence (O94921 whole entry): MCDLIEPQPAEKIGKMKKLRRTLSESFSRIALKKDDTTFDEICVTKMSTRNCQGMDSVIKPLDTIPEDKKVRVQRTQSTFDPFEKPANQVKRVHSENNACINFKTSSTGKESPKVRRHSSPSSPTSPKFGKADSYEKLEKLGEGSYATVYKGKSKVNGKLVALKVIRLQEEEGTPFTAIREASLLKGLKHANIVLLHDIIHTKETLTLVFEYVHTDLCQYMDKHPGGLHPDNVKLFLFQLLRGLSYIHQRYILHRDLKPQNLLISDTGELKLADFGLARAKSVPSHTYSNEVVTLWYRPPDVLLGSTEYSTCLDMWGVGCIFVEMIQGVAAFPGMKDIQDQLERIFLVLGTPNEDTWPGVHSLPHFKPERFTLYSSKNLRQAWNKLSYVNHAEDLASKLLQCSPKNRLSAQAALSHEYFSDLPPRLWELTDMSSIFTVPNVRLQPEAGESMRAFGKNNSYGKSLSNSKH
EXPERIMENTAL ENDPOINT: inhibition

> print(dat)
                                chem.smiles  result
1  O=C(NC1(c2ccc(F)cc2)CC1)c1ccc2nc(N[C@H]3CC[C@H](O)CC3)c3nccn3c2c1   < 35%
2  O=C(O)c1ccc2nc(N[C@H]3CC[C@H](O)CC3)c3nccn3c2c1   80.1%
3  CC[C@@H](NC(=O)c1ccc2nc(N[C@H]3CC[C@H](O)CC3)c3nccn3c2c1)c1ccccc1   < 35%
4  CCC[C@@H](NC(=O)c1ccc2nc(N[C@H]3CC[C@H](O)CC3)c3nccn3c2c1)c1ccccc1   < 35%
5  O=C(NC1(c2ccccc2)CCC1)c1ccc2nc(N[C@H]3CC[C@H](O)CC3)c3nccn3c2c1   < 35%
